Measurement Target: α4β1 integrin (Jurkat cell adhesion to immobilized CS-1 derived peptide CLHPGEILDVPST) (Homo sapiens, UniProt P05556+P13612)
Construct: 100 μl of Jurkat cells (2.5×10^6 cells/ml) in DMEM plus BSA
Sequence (P13612 34-1032): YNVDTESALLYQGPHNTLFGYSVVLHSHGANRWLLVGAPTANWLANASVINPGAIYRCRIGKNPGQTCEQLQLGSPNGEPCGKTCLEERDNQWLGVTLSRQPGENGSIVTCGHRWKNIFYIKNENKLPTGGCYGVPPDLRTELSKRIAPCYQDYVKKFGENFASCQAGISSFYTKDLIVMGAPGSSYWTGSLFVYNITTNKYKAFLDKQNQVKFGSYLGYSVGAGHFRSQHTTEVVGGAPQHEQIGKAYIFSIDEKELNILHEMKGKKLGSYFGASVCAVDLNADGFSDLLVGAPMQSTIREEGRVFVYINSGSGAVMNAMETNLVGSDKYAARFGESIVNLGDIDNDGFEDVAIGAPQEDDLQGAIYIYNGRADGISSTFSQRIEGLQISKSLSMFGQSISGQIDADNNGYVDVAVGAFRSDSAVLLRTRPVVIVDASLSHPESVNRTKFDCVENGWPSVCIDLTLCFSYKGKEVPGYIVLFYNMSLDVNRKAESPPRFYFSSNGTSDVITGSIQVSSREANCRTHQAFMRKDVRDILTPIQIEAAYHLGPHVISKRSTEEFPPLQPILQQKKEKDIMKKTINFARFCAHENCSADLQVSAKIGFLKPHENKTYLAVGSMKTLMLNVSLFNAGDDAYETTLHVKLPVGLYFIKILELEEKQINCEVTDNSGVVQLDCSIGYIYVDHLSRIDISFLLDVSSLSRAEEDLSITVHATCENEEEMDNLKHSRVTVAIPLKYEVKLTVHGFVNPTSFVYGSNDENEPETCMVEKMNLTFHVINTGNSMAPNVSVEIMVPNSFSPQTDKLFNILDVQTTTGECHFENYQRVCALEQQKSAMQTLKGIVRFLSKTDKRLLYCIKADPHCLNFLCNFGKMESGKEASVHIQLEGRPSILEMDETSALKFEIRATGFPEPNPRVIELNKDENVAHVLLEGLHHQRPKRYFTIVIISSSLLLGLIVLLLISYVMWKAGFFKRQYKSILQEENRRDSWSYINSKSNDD
Sequence (P05556 21-798): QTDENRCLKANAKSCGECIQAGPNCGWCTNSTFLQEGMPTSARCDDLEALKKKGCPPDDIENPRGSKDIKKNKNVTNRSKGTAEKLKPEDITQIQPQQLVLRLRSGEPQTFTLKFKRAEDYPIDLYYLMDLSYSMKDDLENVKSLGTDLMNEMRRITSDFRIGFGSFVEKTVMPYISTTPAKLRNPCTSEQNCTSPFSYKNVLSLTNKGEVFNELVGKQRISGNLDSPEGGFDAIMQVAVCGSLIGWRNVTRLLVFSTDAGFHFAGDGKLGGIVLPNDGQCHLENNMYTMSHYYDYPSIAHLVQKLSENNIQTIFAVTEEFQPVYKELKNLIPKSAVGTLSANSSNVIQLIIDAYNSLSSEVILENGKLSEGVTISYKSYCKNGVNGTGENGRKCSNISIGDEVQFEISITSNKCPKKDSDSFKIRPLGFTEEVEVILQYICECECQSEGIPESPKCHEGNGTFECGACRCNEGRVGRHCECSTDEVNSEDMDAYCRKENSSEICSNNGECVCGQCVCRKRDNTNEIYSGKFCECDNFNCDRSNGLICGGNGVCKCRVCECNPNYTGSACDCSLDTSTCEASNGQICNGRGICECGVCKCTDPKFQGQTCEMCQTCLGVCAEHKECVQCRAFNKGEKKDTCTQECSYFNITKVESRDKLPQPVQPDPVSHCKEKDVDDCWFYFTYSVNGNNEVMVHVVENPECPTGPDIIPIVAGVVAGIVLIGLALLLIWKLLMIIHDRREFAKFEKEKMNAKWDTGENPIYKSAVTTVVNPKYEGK
Experimental Details: Jurkat-CS-1 assay
Condition Details: Jurkat cells on CS-1 peptide coated plates; read-out: JK/CS-1 (Jurkat CS-1 Assay IC50 value range)
pIC50: −log10 of the molar value. Structures can show the parent of a compound that is named as a salt.
Outcome Measure: pIC50

[
  {
    "Molecule": "CCOC(=O)N1[C@@H](C(=O)O)C[C@@H]1C(=O)N[C@@H](Cc1ccc(NC(=O)c2c(Cl)cccc2Cl)cc1)C(=O)O",
    "Endpoint Result": "6.12 to 7.30"
  }
]

According to the records, this molecule O=C(Nc1ccc(C[C@H](NC(=O)[C@@H]2CSCCN2)C(=O)O)cc1)c1c(Cl)cccc1Cl [Example 101, Monohydrochloride] displays pIC50 of 6.12 to 7.30

According to the records, this molecule COC(=O)CCCC(=O)N1CSC[C@@H]1C(=O)N[C@@H](Cc1ccc(NC(=O)c2c(Cl)cccc2Cl)cc1)C(=O)OC (relative stereo) displays pIC50 of 6.12 to 7.30

According to the records, this molecule COCCC(=O)N1CCC[C@H]1C(=O)N[C@@H](Cc1ccc(NC(=O)c2c(Cl)cccc2Cl)cc1)C(=O)O displays pIC50 of 6.12 to 7.30

According to the records, this molecule COC(=O)[C@H](Cc1ccc(NC(=O)c2c(Cl)cccc2Cl)cc1)NC(=O)[C@@H]1N(C(=O)OC(C)(C)C)CSC1(C)C (relative stereo) displays pIC50 of ≤ 6.12

According to the records, this molecule COC(=O)CCC1(CCC(=O)N[C@@H](Cc2ccc(NC(=O)c3c(Cl)cccc3Cl)cc2)C(=O)OC)CCC(=O)N1 (stereo partly drawn) displays pIC50 of ≤ 6.12

* * *

Measurement Target: α4β1 integrin (Jurkat cell adhesion to immobilized CS-1 derived peptide CLHPGEILDVPST) (Homo sapiens, UniProt P05556+P13612)
Construct: 100 μl of Jurkat cells (2.5×10^6 cells/ml) in DMEM plus BSA
Experimental Details: Jurkat-CS-1 assay
Condition Details: Jurkat cells on CS-1 peptide coated plates; read-out: JK/CS-1 (Jurkat CS-1 Assay IC50 value range)
Listed below: IC50 values for each entry.

[
  {
    "Compound": "O=C(Nc1ccc(C[C@H](NC(=O)[C@@H]2CCCCN2C(=O)C2CCOC2)C(=O)O)cc1)c1c(Cl)cccc1Cl (some centres unmarked) [Example 193]",
    "Outcome Measure": "IC50",
    "Endpoint Result": "50 to 750 nM"
  },
  {
    "Compound": "COC(=O)[C@H](Cc1ccc(NC(=O)c2c(Cl)cccc2Cl)cc1)NC(=O)[C@H]1CSC(C)(C)N1C(=O)OC(C)(C)C (relative stereo) [Example 75]",
    "Outcome Measure": "IC50",
    "Endpoint Result": "≥ 750 nM"
  }
]

Okay, now this compound:
According to the records, this compound COC(=O)[C@H](Cc1ccc(OCc2c(Cl)cccc2Cl)cc1)NC(=O)[C@H]1CSCN1S(C)(=O)=O [Example 50] displays IC50 of 50 to 750 nM

* * *

Measurement Target: α4β1 integrin (Jurkat T-cell adhesion to IL-1 stimulated endothelial cell monolayers) (Homo sapiens, UniProt P05556+P13612)
Construct: a T-cell line, Jurkat, known to express the α4β1 integrin
Sequence (P13612 34-1032): as the sequence (P13612 34-1032) above
Sequence (P05556 21-798): as the sequence (P05556 21-798) above
Experimental Details: Jurkat-endothelial cell adhesion assay (Jurkat EC)
Condition Details: Jurkat cells on IL-1 stimulated human umbilical vein endothelial cells; read-out: JK/EC (Jurkat EC Assay IC50 value range)
pIC50: −log10 of the molar value.
Outcome Measure: pIC50

According to the records, this compound O=C(O)CNC(=O)N1CCCC(C(=O)N[C@@H](Cc2ccc(NC(=O)c3c(Cl)cccc3Cl)cc2)C(=O)O)C1 (stereo partly shown) [Example 202] displays pIC50 of ≤ 6.00

According to the records, this compound O=C(O)CCC(=O)N1CCCCC[C@H]1C(=O)N[C@@H](Cc1ccc(NC(=O)c2c(Cl)cccc2Cl)cc1)C(=O)O (relative stereo) [Example 157] displays pIC50 of ≥ 6.60

According to the records, this compound COC(=O)[C@H](Cc1ccc(NC(=O)c2c(Cl)cccc2Cl)cc1)NC(=O)[C@@H]1COCN1C(=O)OCc1ccccc1 [Example 124] displays pIC50 of ≤ 6.00

According to the records, this compound O=C(Nc1ccc(C[C@H](NC(=O)[C@H]2CCCN2C(=O)C2CCCO2)C(=O)O)cc1)c1c(Cl)cccc1Cl (stereo partly shown) [Example 260] displays pIC50 of 6.00 to 6.60

* * *

Listed below: pIC50 values for each entry.
Measurement Target: α4β1 integrin (Jurkat cell adhesion to immobilized CS-1 derived peptide CLHPGEILDVPST) (Homo sapiens, UniProt P05556+P13612)
Construct: 100 μl of Jurkat cells (2.5×10^6 cells/ml) in DMEM plus BSA
Experimental Details: Jurkat-CS-1 assay
Condition Details: Jurkat cells on CS-1 peptide coated plates; read-out: JK/CS-1 (Jurkat CS-1 Assay IC50 value range)
pIC50: −log10 of the molar value.

[
  {
    "Compound": "CS(=O)(=O)N1CSC[C@@H]1C(=O)N[C@@H](Cc1ccc(OCc2c(Cl)cccc2Cl)cc1)C(N)=O [Example 159]",
    "Endpoint Result": "≤ 6.12"
  },
  {
    "Compound": "CCS(=O)(=O)N1CSC[C@@H]1C(=O)N[C@@H](Cc1ccc(NC(=O)c2c(Cl)cccc2Cl)cc1)C(=O)OC [Example 42]",
    "Endpoint Result": "6.12 to 7.30"
  }
]

Okay, now this compound:
According to the records, this compound CC(C)(C)OC(=O)N1CSC[C@H]1C(=O)N[C@@H](Cc1ccc(OCc2c(Cl)cccc2Cl)cc1)C(=O)O (relative stereo) [Example 41] displays pIC50 of ≤ 6.12

* * *

Measurement Target: α4β1 integrin (Jurkat cell adhesion to immobilized CS-1 derived peptide CLHPGEILDVPST) (Homo sapiens, UniProt P05556+P13612)
Construct: 100 μl of Jurkat cells (2.5×10^6 cells/ml) in DMEM plus BSA
Experimental Details: Jurkat-CS-1 assay
Condition Details: Jurkat cells on CS-1 peptide coated plates; read-out: JK/CS-1 (Jurkat CS-1 Assay IC50 value range)
pIC50: −log10 of the molar value.
Listed below: pIC50 values for each entry.

According to the records, this compound CC(C)=CCN1C(=O)CCC1(CCC(=O)O)CCC(=O)N[C@@H](Cc1ccc(OCc2c(Cl)cccc2Cl)cc1)C(=O)O (some centres unmarked) [Example 109] displays pIC50 of ≤ 6.12

According to the records, this compound COC(=O)[C@H](Cc1ccc(OCc2c(Cl)cccc2Cl)cc1)NC(=O)[C@H]1CSCN1C(=O)OCCN1CCOCC1 (relative stereo) [Example 36] displays pIC50 of ≥ 7.30

According to the records, this compound COC(=O)[C@H](Cc1ccc(NC(=O)c2c(Cl)cccc2Cl)cc1)NC(=O)[C@@H]1CSCN1C(C)=O [Example 69] displays pIC50 of ≤ 6.12

* * *

Listed below: IC50 values for each entry.
Measurement Target: α4β1 integrin (Jurkat cell adhesion to immobilized CS-1 derived peptide CLHPGEILDVPST) (Homo sapiens, UniProt P05556+P13612)
Construct: 100 μl of Jurkat cells (2.5×10^6 cells/ml) in DMEM plus BSA
Experimental Details: Jurkat-CS-1 assay
Condition Details: Jurkat cells on CS-1 peptide coated plates; read-out: JK/CS-1 (Jurkat CS-1 Assay IC50 value range)
Where a name gives a salt, the structure may show the parent alone.

[
  {
    "Molecule": "O=C(O)c1cc(C(=O)N2CCCC[C@H]2C(=O)N[C@@H](Cc2ccc(NC(=O)c3c(Cl)cccc3Cl)cc2)C(=O)O)n[nH]1",
    "IC50": "50 to 750 nM"
  },
  {
    "Molecule": "COC(=O)[C@H](Cc1ccc(NC(=O)c2c(Cl)cccc2Cl)cc1)NC(=O)[C@@H]1CSCCN1",
    "IC50": "≥ 750 nM"
  },
  {
    "Molecule": "C[C@@H](c1ccccc1)N1[C@H](C(=O)O)C[C@H]1C(=O)N[C@@H](Cc1ccc(NC(=O)c2c(Cl)cccc2Cl)cc1)C(=O)O [Example 129, Dilithium Salt]",
    "IC50": "50 to 750 nM"
  },
  {
    "Molecule": "O=C(Nc1ccc(C[C@H](NC(=O)C2CS[C@H]3CNC(=O)N23)C(=O)O)cc1)c1c(Cl)cccc1Cl (some centres unmarked)",
    "IC50": "50 to 750 nM"
  }
]

Okay, now this molecule:
According to the records, this molecule CCOC(=O)N1[C@@H](C(=O)N[C@@H](Cc2ccc(NC(=O)c3c(Cl)cccc3Cl)cc2)C(=O)OC)CSC12CCCC2 (relative stereo) displays IC50 of ≥ 750 nM
